- Test system: HCT-15
Kindly state GI50 for each of the entries shown.

>>> value_observed("Cc1cnc2c(C)ccc([N+](=O)[O-])c2c1NCCCN(C)C")
"> 100 µM"
>>> value_observed("NP1(Oc2ccc(F)cc2)=NP(N)(Oc2ccc(F)cc2)=NP(Oc2ccc(F)cc2)(Oc2ccc(F)cc2)=N1 (stereo not drawn)")
"3.81 µM"
>>> value_observed("CCOC(=O)Cn1nc2ccc(Nc3c(C)[n+]([O-])c4cc(F)c(OCC)cc4[n+]3[O-])cc2n1")
"> 100 µM"
>>> value_observed("O=C1/C(=C/c2ccc3c(c2)OCO3)Sc2scc(-c3ccc(O)c(O)c3)[n+]21")
"1.63 µM"
>>> value_observed("O=c1[nH]c2ccc(C(F)(F)F)cc2nc1-c1ccccc1")
"> 100 µM"

Please go through the list and note GI50 for each molecule.
1. COc1c(C)cc(O)cc1C=O
2. O=C(O)CN1CCCC(Cc2c[nH]c3ccccc23)C1 (stereo not drawn)

Reply:
1: > 100 µM; 2: > 100 µM

Please go through the list and note GI50 for each molecule.
1. COC(=O)c1cc2ccc(OC(C)=O)c(OC(C)=O)c2cn1
2. CCN(CC)[C@@H]1c2cc3c(cc2C(c2cc(OC)c(O)c(OC)c2)C2C(=O)CO[C@@H]21)OCO3 (stereo partly drawn)
3. O=C1/C(=C/c2ccccc2)CCCc2ccccc21
4. COc1nc(N(C)C)nc2c1[n+](C)cn2C [HETEROMINE A]
5. Cc1ccc(/N=N/c2c(-c3ccccc3)nn(C(=O)CC(=O)Nc3ccc(Cl)cc3)c2-c2ccccc2)cc1
6. CC(=O)c1cccc(NC(=O)C(=O)Nn2c(N)nnc2N)c1

Reply:
["20.4 µM", "> 100 µM", "16.2 µM", "> 100 µM", "56.4 µM", "> 100 µM"]

Please go through the list and note GI50 for each molecule.
1. C=CC1C(OC2OC(CO)C(O)C(O)C2O)OC=C(C(=O)OC)C1CC=O (stereo not drawn)
2. CCn1c(SC(C)C(=O)c2c(C)n(C)n(-c3ccccc3)c2=O)nc2ccccc2c1=O (stereo not drawn)
3. COc1nc(OC)nc(-c2cccc(F)c2)n1
4. [N-]=[N+]=Nc1cc(=O)n2c3c(cccc13)CCC2

Reply:
> 100 µM
> 100 µM
13.7 µM
> 100 µM

Task item: Let me know recorded GI50 for CSCCC(N)C(=O)NCCNc1ccc(NCCNC(=O)C(N)CCSC)c2c1C(=O)c1ccccc1C2=O (stereo not drawn) , thanks.
Reply: 1.22 µM

###

- System: K562
- assay-overview: NCI tumour cell line growth inhibition, 48 h
Activity calls are given as the source filed them. Cut-off read from the data, not from the text of the source: active = GI50 up to about 1.1 µM and inactive = higher.
Lab note: assign the record to one of y (active), n (inactive)

Known results for compounds:
>>> group_label("C=C1CCC2C(C)(CO)C(O)CCC2(C)C1C/C=C1/CCOC1=O (centres undefined)")
"n"
>>> group_label("COc1cc(/C=C\\c2ccc(C)cc2)cc(OC)c1OC")
"y"
>>> group_label("Cc1ccc(S(=O)(=O)N2CCC(=O)c3cc(Br)ccc32)cc1")
"n"

Task item: Tell me the recorded outcome of this test for CCN(CC)C(=O)CNC(=O)OC(C)(C)C .
Reply: n

###

Kindly state GI50 for each of the entries shown.
- Tested on: TK-10
- assay-overview: NCI tumour cell line growth inhibition, 48 h
Calls of active or inactive are those of the source. No stated cut-off is given here; in the data, active = GI50 up to about 1.1 µM and inactive = higher.

Reference set, count: 5
>>> value_observed("O=C1c2ccccc2C(=O)C1(Cl)C1(S(=O)(=O)O)c2ccccc2-c2ccccc21")
"> 100 µM (inactive)"
>>> value_observed("CC1OC(c2ccc3c(OCc4ccccc4)cccc3c2O)CC(OCc2ccccc2)[C@H]1OCc1ccccc1 (stereo partly specified)")
"> 10 µM (inactive)"
>>> value_observed("C=C(NC(=O)C(=C)NC(=O)c1csc(C2=NC3c4csc(n4)C4NC(=O)c5csc(n5)C(C(C)(O)C(C)O)NC(=O)C5CSC(=N5)/C(=C/C)NC(=O)C(C(C)O)NC(=O)c5csc(n5)C3(CC2)NC(=O)C(C)NC(=O)C(=C)NC(=O)C(C)NC(=O)C(C(C)CC)NC2C=Cc3c(C(C)O)cc(nc3C2O)C(=O)OC4C)n1)C(N)=O (stereo unspecified)")
"2.75 µM (inactive)"
>>> value_observed("Cc1ccc(Nc2cc(=O)[nH]c(=S)[nH]2)cc1")
"> 100 µM (inactive)"
>>> value_observed("COc1ccc(C2c3c[nH]nc3CC3CCCCC32)cc1 (stereo unspecified)")
"19.7 µM (inactive)"

Please go through the list and note GI50 for each molecule.
1. Cc1nc2c(o1)/C(=N\c1ccccc1)c1ccccc1C2=O
2. COC(=O)C(=O)C(C(=O)C=C(C)C)C(=O)C(=O)Nc1cc(C(F)(F)F)ccc1Cl (stereo unspecified)
3. O=C1c2c(O)cccc2C(C(=O)CCCCCC(=O)C2c3cccc(O)c3C(=O)c3c(O)cccc32)c2cccc(O)c21
4. CCCCCCCCCCCCCC(=O)N(CCCCCCCCC)CC(O)C(O)C(OC1OC(CO)C(O)C(O)C1O)C(O)CO (stereo unspecified)

Reply:
["35.1 µM (inactive)", "> 100 µM (inactive)", "3.82 µM (inactive)", "18.6 µM (inactive)"]

Please go through the list and note GI50 for each molecule.
1. CSc1nc(NC2OCC(OC(C)=O)C(OC(C)=O)C2OC(C)=O)c2c(n1)OCC2=O (stereo unspecified)
2. COC(=O)C1Cc2c(n(C)c3ccccc23)C(c2ccccc2)N1 (stereo unspecified)

Reply:
1. > 100 µM (inactive)
2. > 100 µM (inactive)
